For reference, MIC measured on Escherichia coli K-12 J 5 R 11-2:
Just the number in µg/mL, nothing appended.

>>> measured_number("NC[C@@H]1O[C@H](O[C@H]2[C@@H](O)[C@H](O[C@@H]3[C@@H](O)[C@H](N)C[C@H](N)[C@H]3O[C@H]3O[C@H](CN)[C@@H](O)C[C@H]3N)O[C@@H]2CO)[C@H](N)[C@@H](O)[C@@H]1O [ALVB, 6'-amino-6'-deoxylividomycin B]")
25

# ---- query compound ----
(Q) # input compound: CNC[C@H]1O[C@H](O[C@H]2[C@H](O[C@@H]3O[C@H](CO)[C@@H](O[C@H]4O[C@@H](CN)[C@@H](O)[C@H](O)[C@H]4N)[C@H]3O)[C@@H](O)[C@H](N)C[C@@H]2N)[C@H](N)C[C@@H]1O [MALVB, 6'-deoxy-6'-methylaminolividomycin B] ; wanted: its MIC
(A) 100

Hello, the source for this data is patent US3956274A, in case you need it.
